System: PPARa:RXRa (NR concentration 270 nM, RXRa partner concentration 90 nM)
MEASUREMENT_NOTES: PBM binding z-score (relative to random genomic background probes); higher = stronger binding; sequences stand for … in GC…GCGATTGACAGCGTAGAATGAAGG
Decision: PBM binding z-score >= 2 yields Y, all other cases yield N.

Use the examples below as a reference point.
>>> assigned_label("AGAATGAGGTTATACATAGATCAGGGAAGAAAGT")
"Y"
>>> assigned_label("CAAACTAGCTCACCGGAAGGTCAAAGTCCGCATG")
"Y"
>>> assigned_label("CGAACTAGGTCACAGAGGTCAAAGTCCGTGCGTA")
"Y"
>>> assigned_label("TGAATGAGGATAAAGATCAGGGAACGTGGCGTCG")
"N"
>>> assigned_label("CCTACTGGGCGAAAAAGGTCATTGATGCCGATAA")
"Y"

### Prompt Given "AGAATGAGGTTATTAAGATAAGGGAATTGCGGTC" , state whether its PBM binding z-score is at least 2.
### Response Y

### Prompt Given "CTCGATAGGTCGGTTGAGGTGAGTATACGGATAA" , state whether its PBM binding z-score is at least 2.
### Response N

* * *

Test system: RARa:RXR (NR concentration 270 nM, RXRa partner concentration 90 nM)
MEASUREMENT_NOTES: PBM binding z-score (relative to random genomic background probes); higher = stronger binding; sequences stand for … in GC…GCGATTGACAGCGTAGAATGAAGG
Decision: PBM binding z-score >= 0.07 yields yes, all other cases yield no.

Use the examples below as a reference point.
>>> assigned_label("CCTACTGGGCCACAGGTCATTGATTCCAATGCTC")
"yes"
>>> assigned_label("CCTCGGAGGAAAACAGGAGGTCAGAGCTGCCAGA")
"yes"
>>> assigned_label("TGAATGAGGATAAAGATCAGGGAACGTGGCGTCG")
"no"
>>> assigned_label("CCTTACGGGTTAAGGTTATAGCACGGGTGGTACG")
"yes"
>>> assigned_label("TCGAGTAGGTTAGTCGGGGCTTTCAGCCAACATA")
"no"

### Prompt Given "TCGAGTAGGTTAGTCGGGGCATTCGGCCAACATA" , state whether its PBM binding z-score is at least 0.07.
### Response no

### Prompt Given "TCTTGTAGATCAATAAAGGTTAAGAAAGTGCGCT" , state whether its PBM binding z-score is at least 0.07.
### Response yes

* * *

Below, each of the sequences is paired with its reported PBM binding z-score value.
Test system: PPARg:RXRa 90nM:30nM, anti-RXR (NR concentration 90 nM, RXRa partner concentration 30 nM)
MEASUREMENT_NOTES: PBM binding z-score (relative to random genomic background probes); higher = stronger binding; sequences stand for … in GC…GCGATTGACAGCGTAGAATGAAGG

>>> reported_result("AGTATGAGGTTATTAAGATCAGGGAATTGCGGTC")
0.816

### Prompt Look up and state reported PBM binding z-score for "ATATGTAGGTTAGCTGGGGTCATTCGGACTAGGC"
### Response 4.4

### Prompt Look up and state reported PBM binding z-score for "GTTCCAAGGTGAATAGGTCGTTGATGAGTAGGCG"
### Response 1.07

### Prompt Look up and state reported PBM binding z-score for "ATATGTAGGTTAGCTGGGGTTATTCAGACTAGGC"
### Response 2.9

### Prompt Look up and state reported PBM binding z-score for "CAGCCTAGGTCAGGGCCAGAATAGGAGGAACGTT"
### Response 0.0702

### Prompt Look up and state reported PBM binding z-score for "TCTGCTAGGTCAGTTGGTCAGCTAACGAGCTGCC"
### Response 1.66

* * *

System: RXRa homodimer (NR concentration 180 nM)
MEASUREMENT_NOTES: PBM binding z-score (relative to random genomic background probes); higher = stronger binding; sequences stand for … in GC…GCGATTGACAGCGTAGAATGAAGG
Decision: PBM binding z-score >= 2 yields criterion met, all other cases yield criterion not met.

>>> assigned_label("AGAACGAGAGCACGCTGAGTTGATAGCAGAGTAG")
"criterion not met"
>>> assigned_label("GGAACGAGGGCATTCGAGTTGAGAGCATGGCGAT")
"criterion not met"
>>> assigned_label("GCGACTAGGGCAAAGCAGGTTACCATAAGGTTGG")
"criterion not met"
>>> assigned_label("GCGACTGGGGCATCAGCAGCTTACCATAACTTAA")
"criterion not met"

### Prompt Given "GCTCGGAGAACAAGGTCAGAGCTTTGTCCGTAGA" , state whether its PBM binding z-score is at least 2.
### Response criterion met

### Prompt Given "CCGACTGGGGCAAGGTTACCAGAACGCACAGCCA" , state whether its PBM binding z-score is at least 2.
### Response criterion not met

* * *

Test system: PPARg:RXRa 270nM:90nM, anti-RXR (NR concentration 270 nM, RXRa partner concentration 90 nM)
MEASUREMENT_NOTES: PBM binding z-score (relative to random genomic background probes); higher = stronger binding; sequences stand for … in GC…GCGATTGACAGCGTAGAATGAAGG
MEASUREMENT_TYPE: PBM binding z-score

>>> reported_result("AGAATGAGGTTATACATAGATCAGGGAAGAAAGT")
1.87
>>> reported_result("TCTATTAGTTGATTAGGGAAACCGAAACAGCGGA")
2.16
>>> reported_result("CGTCCAAGGTCAGCAGGACAGTGAAAGCGACGTG")
3.16

### Prompt Look up and state reported PBM binding z-score for "CCTTACGGGTCACTGACAGGTTATAACATTTGGA"
### Response 4.61

### Prompt Look up and state reported PBM binding z-score for "ACTATTAGTTGACTTAGGGCACCCGATACGACGC"
### Response 0.204

### Prompt Look up and state reported PBM binding z-score for "ATAGGTAGGTTAAGGGTCATTCAGGTTGGTTCGC"
### Response 8.69

### Prompt Look up and state reported PBM binding z-score for "TCATATAGCTAATACAGGTGAAAGTCGGCATCTA"
### Response 1.77

### Prompt Look up and state reported PBM binding z-score for "GATACAGGGTCAGCTAGAGGCCGGAGTATGGAAA"
### Response 3.41

### Prompt Look up and state reported PBM binding z-score for "ATCGAAAGGTCGCCGAGGTGAGTATACACCGTTT"
### Response 4.39

### Prompt Look up and state reported PBM binding z-score for "ACTATTAGTTGACTTAGGGCAACCAATACGACGC"
### Response 0.305

### Prompt Look up and state reported PBM binding z-score for "CGTCCAAGGTCATAGGACGTCAGTGAAGACAGAT"
### Response 5.14

* * *

Below, each of the sequences is paired with its reported PBM binding z-score value.
Tested on: THRa:RXRa (NR concentration 90 nM, RXRa partner concentration 90 nM)
MEASUREMENT_NOTES: PBM binding z-score (relative to random genomic background probes); higher = stronger binding; sequences stand for … in GC…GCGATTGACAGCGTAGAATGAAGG
Write the value as a bare number.

### Prompt Look up and state reported PBM binding z-score for "TCTTGTAGATCAACAGGAGGTCAAGAAAGATCGA"
### Response 3.02

### Prompt Look up and state reported PBM binding z-score for "GCTAGCAGGCCATTTGGGTCACTCACTGACGGGC"
### Response 1.73

### Prompt Look up and state reported PBM binding z-score for "TAGCCTAGGTCATGGGCCACTATACCACGCGAAC"
### Response 3.14

### Prompt Look up and state reported PBM binding z-score for "ACTATTAGTTTAGACGAGGGCAACCGATAGGTTG"
### Response 2.5

### Prompt Look up and state reported PBM binding z-score for "CGATCTAGGTCATTGACAGGACAGTGAATAGTAA"
### Response 3.11

### Prompt Look up and state reported PBM binding z-score for "GCAGCTAGGTCAGGTTGGTCAGCTAACGGGTACG"
### Response 1.57

### Prompt Look up and state reported PBM binding z-score for "GCTAACAGGCCATTTGGGTCACTCAATGACGGGC"
### Response 2.13

* * *

Below, each of the sequences is paired with its reported PBM binding z-score value.
Tested on: LXRb:RXRa (NR concentration 270 nM, RXRa partner concentration 90 nM)
MEASUREMENT_NOTES: PBM binding z-score (relative to random genomic background probes); higher = stronger binding; sequences stand for … in GC…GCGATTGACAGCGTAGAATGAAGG
Write the value as a bare number.

>>> reported_result("ATCGAAAGGTCGACGAGGTTAGTATACACCGTTT")
3.11
>>> reported_result("TCTAGGTGGTCAAAGGTCACACACTCGAAATGCG")
5.64

### Prompt Look up and state reported PBM binding z-score for "TAGCCTACGTCATTGGGCCAGTATAGTACGCATC"
### Response -0.66

### Prompt Look up and state reported PBM binding z-score for "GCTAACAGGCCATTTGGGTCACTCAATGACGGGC"
### Response 0.389

### Prompt Look up and state reported PBM binding z-score for "GCCATTAGTTGAAAGGGCAACCGAATGATTCTCG"
### Response 0.887

### Prompt Look up and state reported PBM binding z-score for "AGAATGAGGGCACGCTGAGTTGATAGCAGAGTAG"
### Response 0.487

### Prompt Look up and state reported PBM binding z-score for "AGAACCAGGGCAATGAGTTGATAGCACGGGTGGC"
### Response -0.657

### Prompt Look up and state reported PBM binding z-score for "AGTCAAAGTGCAGGACGAGGTAACGTAAAGCACG"
### Response -0.641

### Prompt Look up and state reported PBM binding z-score for "CGTCAAAGTTCAACGAAGGTAACGTAAAGCACGC"
### Response 3.6

### Prompt Look up and state reported PBM binding z-score for "AGAATGAGGTTACCGAAGATCAGGGAAACGCTTG"
### Response 2.19

### Prompt Look up and state reported PBM binding z-score for "GCTGCTAGGTCAGGTTGGCCAGCTAACGGGTACG"
### Response 0.118

### Prompt Look up and state reported PBM binding z-score for "TCAGACAGGTGAGGGTAACTCAGGTACGCAGTCG"
### Response 0.561
